# protocol_details: log P by HPLC on a reversed-phase column (C 18), EEC Directive 79/831 Annex V.A8
# Assay type: physicochemical
# condition_description: HPLC, reversed-phase column (C 18), 40° C.; 0.1% aqueous formic acid and acetonitrile, linear gradient 10% to 90% acetonitrile
outcome_measure: logP

- chemical_structure: "Cc1ccc(C2(C(C)C)CC2)c(CN(C(=O)c2c(C)nn(C)c2F)C2CC2)c1"
  readout_value: 4.54
- chemical_structure: "Cc1ccc(CN(C(=O)c2c(C)nn(C)c2F)C2CC2)c(C2(C)CC2)c1"
  readout_value: 3.71
- chemical_structure: "Cn1cc(C(=O)N(Cc2cc(Cl)ccc2C2(C(F)(F)F)CC2)C2CC2)c(C(F)F)n1"
  readout_value: 3.78
- chemical_structure: "Cc1ccc(C2(C)CC2)c(CN(C(=O)c2nc(C)oc2C(F)F)C2CC2)c1"
  readout_value: 4.56

---

# protocol_details: log P by HPLC on a reversed-phase column (C 18), EEC Directive 79/831 Annex V.A8
# Format: physicochemical
# condition_description: Table 2, compounds of formula (I); HPLC C 18, 40° C., 0.1% aqueous formic acid and acetonitrile
# logP listing for each entry below
outcome_measure: logP

- compound: "Cn1cc(C(=S)N(Cc2cccc3c2C2(CCC3)CC2)C2CC2)c(C(F)F)n1"
  readout_value: 4.37
- compound: "Cn1cc(C(=O)N(Cc2cccc3c2C2(CC3)CC2)C2CC2)c(C(F)F)n1"
  readout_value: 3.51
- compound: "Cn1cc(C(=O)N(Cc2cccc3c2C2(CCC3)CC2(Cl)Cl)C2CC2)c(C(F)F)n1 (racemic)"
  readout_value: 4.06
- compound: "Cn1cc(C(=O)N(Cc2cccc3c2C2(CCC3)CC2)C2CC2)c(C(F)F)n1"
  readout_value: 3.73

---

Parameter logP: see the listing below.
# protocol_details: log P by HPLC on a reversed-phase column (C 18), EEC Directive 79/831 Annex V.A8
# Type: physicochemical
# condition_description: HPLC reversed-phase C 18, 40° C., 0.1% aqueous formic acid and acetonitrile, gradient 10% to 90% acetonitrile

- molecule: "Cn1cc(C(=O)N(Cc2cc(Cl)c(Cl)cc2C2(C)CC2)C2CC2)c(C(F)F)n1 [Example 1.163]"
  logP: 4.28
- molecule: "COCC1(c2ccc(C)cc2CN(C(=O)c2cc(C)oc2C)C2CC2)CC1 [Example 1.155]"
  logP: 4.03
- molecule: "COCC1(c2ccc(C)cc2CN(C(=O)c2c(C)nn(C)c2F)C2CC2)CC1 [Example 1.156]"
  logP: 3.02
- molecule: "COCC1(c2ccc(C)cc2CN(C(=O)c2c(C)nn(C)c2Cl)C2CC2)CC1 [Example 1.158]"
  logP: 3.19
- molecule: "COCC1(c2ccc(C)cc2CN(C(=O)c2cn(C)nc2C)C2CC2)CC1 [Example 1.157]"
  logP: 2.61
- molecule: "Cc1cc(C(=O)N(Cc2cc(F)ccc2C2(C(F)(F)F)CC2)C2CC2)c(C)o1 [Example 1.151]"
  logP: 4.44
- molecule: "Cc1nn(C)c(F)c1C(=O)N(Cc1cc(Cl)c(Cl)cc1C1(C)CC1)C1CC1 [Example 1.162]"
  logP: 4.35
- molecule: "Cn1cc(C(=O)N(Cc2cc(F)ccc2C2(C)CC2(Cl)Cl)C2CC2)c(C(F)F)n1 (stereo not shown) [Example 1.153]"
  logP: 3.68
- molecule: "COCC1(c2ccc(C)cc2CN(C(=O)c2cn(C)nc2C(F)F)C2CC2)CC1 [Example 1.154]"
  logP: 3.13
- molecule: "Cc1nn(C)cc1C(=O)N(Cc1cc(Cl)c(Cl)cc1C1(C)CC1)C1CC1 [Example 1.160]"
  logP: 3.81
- molecule: "Cc1nn(C)c(Cl)c1C(=O)N(Cc1cc(Cl)c(Cl)cc1C1(C)CC1)C1CC1 [Example 1.161]"
  logP: 4.61
- molecule: "Cn1cc(C(=S)N(Cc2cc(F)ccc2C2(C(F)(F)F)CC2)C2CC2)c(C(F)F)n1 [Example 1.152]"
  logP: 3.94
- molecule: "Cc1cc(C(=O)N(Cc2cc(Cl)c(Cl)cc2C2(C)CC2)C2CC2)c(C)o1 [Example 1.159]"
  logP: 5.43
